Biological target: T1, Carbon-terminal polyhistidine-labeled recombinant cynomolgus monkey CD73 enzyme (cynomolgus monkey, UniProt A0A2K5V5U7 1-547)
T1 chain: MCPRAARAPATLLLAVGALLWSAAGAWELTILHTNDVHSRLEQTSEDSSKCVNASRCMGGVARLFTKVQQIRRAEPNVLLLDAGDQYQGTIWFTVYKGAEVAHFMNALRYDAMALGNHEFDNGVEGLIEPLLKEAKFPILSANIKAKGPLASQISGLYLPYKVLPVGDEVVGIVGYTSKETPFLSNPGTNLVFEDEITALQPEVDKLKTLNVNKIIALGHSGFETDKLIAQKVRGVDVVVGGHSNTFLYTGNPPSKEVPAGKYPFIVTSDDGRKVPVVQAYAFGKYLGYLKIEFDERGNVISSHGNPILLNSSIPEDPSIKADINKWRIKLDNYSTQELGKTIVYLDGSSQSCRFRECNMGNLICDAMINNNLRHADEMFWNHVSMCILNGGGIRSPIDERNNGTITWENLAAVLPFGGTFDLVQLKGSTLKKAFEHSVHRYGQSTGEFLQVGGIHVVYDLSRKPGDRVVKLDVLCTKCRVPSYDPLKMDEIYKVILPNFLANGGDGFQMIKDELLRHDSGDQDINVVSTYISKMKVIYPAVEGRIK
Assay: enzyme inhibition; left table
Quick reference: IC50 of the listed items.
Please reply with the bare figure in nM and do not write the unit itself.

Would you kindly share the measured IC50 for Hu001c-15 (antibody, V domains shown) VH: QVQLVQSGAEVKKPGASVKVSCKTSGYTFTNYYIYWVRQAPGQRLEWMGWIYPGNLNIKYNEKFKGRVTITADTSASTAYMELSSLRSEDTAVYYCARDDNYAWFAYWGQGTLVTVSS VL: DIQMTQSPSSLSASVGDRVTITCKASQDVSTAVAWYQQKPGKSPKLLIYWTNTRHTGVPSRFSGSGSGTDHTLTISSLQPEDFATYYCQQHYSTPFTFGQGTKLEIK ?
0.1

Also need mAb001c (antibody, V domains shown) VH: QVQLQQSGPELVKPGASVRISCKTSGYTFTNYYIYWVKQRPGQGLEWIGWIYPGNLNIKYNEKFKGKSTLTADKSSSTAFMQLSSLTSEDSAVYFCARDDNYAWFAYWGQGTLVTVSS VL: DIVMTQSHKFMSTSIGDRVSITCKASQDVSTAVAWYQQKPGQSPKLLIYWTNTRHTGVPDRFTGNTSGTEHTLTISSVQAEDLALYYCQQHYSTPFTFGSGTTLEIK , thanks.
0.04

Also need Hu001c-21 (antibody, V domains shown) VH: QVQLVQSGAEVKKPGASVKVSCKASGYTFTNYYIYWVRQAPGQRLEWIGWIYPGNLNIKYNEKFKGRVTITADKSASTAYMELSSLRSEDTAVYYCARDDNYAWFAYWGQGTLVTVSS VL: DIQMTQSPSSLSASVGDRVTITCKASQDVSTAVAWYQQKPGKAPKLLIYWTNTRHTGVPSRFSGSGSGTDHTLTISSLQPEDFATYYCQQHYSTPFTFGQGTKLEIK , thanks.
0.37

Also need Hu001c-24 (antibody, V domains shown) VH: QVQLVQSGAEVKKPGASVKVSCKTSGYTFTNYYIYWVKQRPGQGLEWIGWIYPGNLNIKYNEKFKGRVTITADKSASTAYMELSSLRSEDTAVYYCARDDNYAWFAYWGQGTLVTVSS VL: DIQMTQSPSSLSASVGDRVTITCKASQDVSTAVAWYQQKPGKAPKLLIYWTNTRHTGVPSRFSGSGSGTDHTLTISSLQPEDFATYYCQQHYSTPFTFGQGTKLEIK , thanks.
0.04
